Provide the recorded IC50 for the entries that follow.
# target.of.assay: Replicase polyprotein 1ab (Severe acute respiratory syndrome coronavirus 2)
# measurement.protocol: Inhibition of SARS-CoV-2 papain-like protease (PLpro) by enzymatic assay
Dear colleague, please send the value followed by its unit.

Here is how some compounds turned out for IC50.
>>> df
                                  structure  assay_result
0  Cc1ccc(OCCN(C)C)cc1C(=O)N[C@H](C)c1cc(-c2ccco2)cc(-c2ccco2)c1        200 nM
1  CCn1ccc(-c2cc(-c3ccn(C)n3)cc([C@@H](C)NC(=O)c3cc(OCCN(C)C)ccc3C)c2)n1        330 nM
2  Cc1ccc(OCCN(C)C)cc1C(=O)N[C@H](C)c1cc(-c2ccnn2C)cc(-c2ccnn2C)c1        460 nM
3  CCn1ccc(-c2cc(-c3cnn(C(F)F)c3)cc([C@@H](C)NC(=O)c3cc(OCCN(C)C)ccc3C)c2)n1        320 nM
4  CCn1ccc(-c2cc(-c3cnn(C4COC4)c3)cc([C@@H](C)NC(=O)c3cc(OCCN(C)C)ccc3C)c2)n1        260 nM

// each compound listed below needs its IC50
1. CCn1nccc1-c1cc(-c2ccnn2CC)cc([C@@H](C)NC(=O)c2cc(OCCN(C)C)ccc2C)c1
2. CCn1ccc(-c2cc(-c3cnn(CCOC)c3)cc([C@@H](C)NC(=O)c3cc(OCCN(C)C)ccc3C)c2)n1

440 nM
160 nM

Value lookup for IC50; key = `Cc1ccc(OCCN(C)C)cc1C(=O)N[C@H](C)c1cc(-c2ccc(O)cc2)cc(-c2ccc(O)cc2)c1`
160 nM

----------
Please provide measured Ki for the entries that follow.
# target.of.assay: Replicase polyprotein 1ab (Severe acute respiratory syndrome coronavirus 2, UniProt P0DTD1)
# measurement.protocol: Binding affinity to SARS-CoV-2 papain-like protease extracted from Escherichia coli BL21 (DE3) cells assessed as inhibition constant by SPR analysis
Answers are plain numbers, in nM.

Hi there! I need Ki for each item below, if you can.
1. Cc1ccc(OCCN(C)C)cc1C(=O)N[C@H](C)c1cc(-c2cnn(C)c2)cc(-c2cncs2)c1
2. Cc1ccc(OCCN(C)C)cc1C(=O)N[C@H](C)c1cc(-c2cnn(CCN3CCOCC3)c2)cc(-c2ccn(C)n2)c1
3. Cc1ccc(OCCN(C)C)cc1C(=O)N[C@H](C)c1cc(-c2cccs2)cc(-c2ccc(CN)s2)c1
4. Cc1ccc(OCCN(C)C)cc1C(=O)N[C@H](C)c1cc(-c2cnn(C)c2)cc(-c2cnn(CCN3CCOCC3)c2)c1
5. Cc1ccc(OCCN(C)C)cc1C(=O)N[C@H](C)c1cc(-c2cnn(C)c2)cc(-c2cnn(C3CC3)c2)c1

30
40
70
20
30

----------
# target.of.assay: Replicase polyprotein 1ab (Severe acute respiratory syndrome coronavirus 2)
# measurement.protocol: Inhibition of SARS-CoV-2 papain-like protease
metric.name: IC50 (nM)
One number for each entry, in nM.

Look over these answered cases.
                                   compound  metric_name  unit_descriptor  assay_result
0  Cc1ccc(N2CCN(CCC(=O)O)CC2)cc1C(=O)NC1(c2cccc3ccccc23)CC1         IC50               nM           110
1  Cc1ccc(N2CCN(CC(=O)O)CC2)cc1C(=O)NC1(c2cccc3ccccc23)CC1         IC50               nM            40
2  Cc1ccc(N2CCNCC2)cc1C(=O)NC1(c2cccc3ccccc23)CC1         IC50               nM            30
3  Cc1ccc(N2CC3CNCC3C2)cc1C(=O)NC1(c2cccc3ccccc23)CC1 (stereo not drawn)         IC50               nM            30
4  Cc1ccccc1C(=O)NC(C)c1cccc2ccccc12 (racemic)         IC50               nM         23500

For every record below, what is its IC50?
1. Cc1ccc(N2CCNC(C)C2)cc1C(=O)NC1(c2cccc3ccccc23)CC1 (stereo not drawn)
2. Cc1ccc(N2CCN(C)CC2)cc1C(=O)NC1(c2cccc3ccccc23)CC1
3. Cc1ccc(N2C[C@H]3C[C@@H](C2)N3)cc1C(=O)NC1(c2cccc3ccccc23)CC1

1. 70
2. 20
3. 20

Provide the reported IC50 of each entry below, same order.
1. C#CC(=O)NNC(=O)CCc1ccccc1C(=O)N[C@H](C)c1cccc2ccccc12
2. CC(=O)Nc1cccc(Nc2ccc(C)c(C(=O)NC3(c4cccc5ccccc45)CC3)c2)c1
3. Cc1ccc(N2CCN(C(=N)N)CC2)cc1C(=O)NC1(c2cccc3ccccc23)CC1
4. Cc1ccc(N2CC3CN(C)CC3C2)cc1C(=O)NC1(c2cccc3ccccc23)CC1 (stereo not drawn)
5. Cc1ccc(N)cc1C(=O)NC1(c2cccc3ccccc23)CC1

90
500
140
130
180

----------
# target.of.assay: Replicase polyprotein 1ab (Severe acute respiratory syndrome coronavirus 2)
# measurement.protocol: Inhibition of SARS-CoV-2 Main protease using Dabcyl-KLSAVLQSGFRKM-Edans-NH2 as substrate incubated for 30 mins by FRET based enzymatic assay
The label Fulfilled is reserved for IC50 strictly under 90 nM; Not fulfilled covers values equal to or above it.

Lab log: compare recorded IC50 with 90 nM; is it strictly lower for `Cc1ccc(OCCN(C)C)cc1C(=O)N[C@H](C)c1cc(-c2cnn(C(C)C)c2)cc(-c2ccn(C)n2)c1` ?
Not fulfilled

Consider `CC(=O)n1cc(-c2cc(-c3cnn(C)c3)cc([C@@H](C)NC(=O)c3cc(OCCN(C)C)ccc3C)c2)cn1` . Does its IC50 lie strictly below 90 nM?
Not fulfilled

Item `Cc1ccc(OCCN(C)C)cc1C(=O)N[C@H](C)c1cc(-c2cnn(C)c2)cc(-c2cnn(CC3CCOCC3)c2)c1` : IC50 beneath 90 nM, strictly?
Fulfilled

A record lists `Cc1ccc(OCCN(C)C)cc1C(=O)N[C@H](C)c1cc(-c2cnn(CC(F)(F)F)c2)cc(-c2cccs2)c1` . Is its IC50 below 90 nM?
Fulfilled

Determine whether this compound shows IC50 lower than 90 nM (ties excluded): `Cc1ccc(OCCN(C)C)cc1C(=O)N[C@H](C)c1cc(-c2cn[nH]c2)cc(-c2cccs2)c1`
Fulfilled

Please check: IC50 for `Cc1ccc(OCCN(C)C)cc1C(=O)N[C@H](C)c1cc(-c2ccc3cnn(C)c3c2)cc(-c2cnn(C)c2)c1` , strictly under 90 nM or not?
Not fulfilled

Could you please tell me whether IC50 recorded for `COCCn1cc(-c2cc(-c3cnn(C(F)F)c3)cc([C@@H](C)NC(=O)c3cc(OCCN(C)C)ccc3C)c2)cn1` is less than 90 nM?
Not fulfilled

----------
# target.of.assay: Replicase polyprotein 1ab (Severe acute respiratory syndrome coronavirus 2, UniProt P0DTD1)
# measurement.protocol: Inhibition of SARS-CoV-2 papain-like protease (PLpro) by enzymatic assay
Consider the following molecules; for each one, report its IC50.
Give bare numbers, in nM.

Some entries whose results are on file:
In [3]: df
Out[3]:
                                  structure  assay_result
0  CCn1ccc(-c2cc(-c3cnn(CC(F)F)c3)cc([C@@H](C)NC(=O)c3cc(OCCN(C)C)ccc3C)c2)n1           230
1  COc1ncc(-c2cc(-c3cnc(OC)nc3)cc([C@@H](C)NC(=O)c3cc(OCCN(C)C)ccc3C)c2)cn1          1950
2  Cc1ccc(OCCN(C)C)cc1C(=O)N[C@H](C)c1cc(-c2cnn(C(F)F)c2)cc(-c2cnn(C(F)F)c2)c1           170
3  Cc1ccc(OCCN(C)C)cc1C(=O)N[C@H](C)c1cc(-c2ccccc2)cc(-c2ccccc2)c1           103

Then there is this molecule:
Report IC50 for `CCn1ccc(-c2cc(-c3ccn(CC(F)F)n3)cc([C@@H](C)NC(=O)c3cc(OCCN(C)C)ccc3C)c2)n1` please.
220

----------
Please go through the items and note down their IC50.
# target.of.assay: Replicase polyprotein 1ab (Severe acute respiratory syndrome coronavirus 2, UniProt P0DTD1)
# measurement.protocol: Inhibition of SARS-CoV-2 papain-like protease (PLpro) by enzymatic assay
Numbers only, in nM.

Some compounds with recorded IC50:
>>> print(df.to_string())
                                  structure  metric_name  unit_descriptor  assay_result
0  COCCn1cc(-c2cc(-c3cnn(CCOC)c3)cc([C@@H](C)NC(=O)c3cc(OCCN(C)C)ccc3C)c2)cn1         IC50               nM           180
1  CCn1ccc(-c2cc(-c3cnn(CC(F)(F)F)c3)cc([C@@H](C)NC(=O)c3cc(OCCN(C)C)ccc3C)c2)n1         IC50               nM           270
2  Cc1ccc(OCCN(C)C)cc1C(=O)N[C@H](C)c1cc(-c2cncs2)cc(-c2cncs2)c1         IC50               nM           100

Proceeding to the next compound to report its IC50.
GET /values?readout=IC50&item= `Cc1ccc(OCCN(C)C)cc1C(=O)N[C@H](C)c1cc(-c2ccsc2)cc(-c2ccsc2)c1`
100
